Each recorded value in this set is attributed to paper PMC6009861.

- System: noncancerous human mesenchymal stem cells (hMSC)
- assayDetails: Cell viability assay, hMSC
- Assay type: cell-based
- testSettings: 96 h

compound: COc1ccc(-c2ccc(-c3ccc(OC)cc3)c(/C=C3\N=C(C)OC3=O)c2)cc1 [Compound 20b]
targetDesc: noncancerous human mesenchymal stem cells (hMSC)
IC50: > 100 µM

###

pIC50 tested on human FAAH (Homo sapiens): recorded values
pIC50: −log10 of the molar value.
endpointName: pIC50

compound: COc1nn(-c2ccc(NC(=O)OCc3ccccc3)c(C)c2)c(=O)o1 [CAY10499, reference compound]
readoutNumber: 7.83
--
compound: COc1ccc(-c2ccc(-c3ccc(OC)cc3)c(/C=C3\N=C(C)OC3=O)c2)cc1 [Compound 20b]
readoutNumber: 4.44
--
compound: CC1=N/C(=C\c2cc(-c3cccc(F)c3)ccc2-c2cccc(F)c2)C(=O)O1 [Compound 20e]
readoutNumber: 4.93
--
compound: COc1ccc(-c2ccc(-c3ccc(OC)c(F)c3)c(/C=C3\N=C(C)OC3=O)c2)cc1F [Compound 20g]
readoutNumber: 4.65
--
compound: CC1=N/C(=C\c2cc(-c3ccc(Cl)cc3)ccc2-c2ccc(Cl)cc2)C(=O)O1 [Compound 20h]
readoutNumber: 4.94
--
compound: CC1=N/C(=C\c2cc(-c3ccc(F)cc3)ccc2-c2ccc(F)cc2)C(=O)O1 [Compound 20a]
readoutNumber: 4.55

###

- targetDesc: MAGL (Homo sapiens)
- Construct: purchased Cayman Chemical
- assayDetails: MAGL-inhibition assay (4-NPA substrate, absorbance 405 nm)
- Type: biochemical
- testSettings: ratio of FAAH IC50 to MAGL IC50 (fold)
endpointName: MAGL/FAAH selectivity

compound: CC1=N/C(=C\c2cccc(-c3ccccc3)c2-c2ccccc2)C(=O)O1
readoutNumber: 8

compound: CC1=N/C(=C\c2cc(-c3cccc(F)c3)ccc2-c2cccc(F)c2)C(=O)O1 [Compound 20e]
readoutNumber: 19

compound: COc1nn(-c2ccc(NC(=O)OCc3ccccc3)c(C)c2)c(=O)o1 [CAY10499, reference compound]
readoutNumber: 0.1

compound: COc1ccc(-c2ccc(-c3ccc(OC)cc3)c(/C=C3\N=C(C)OC3=O)c2)cc1 [Compound 20b]
readoutNumber: 104

###

- targetDesc: MAGL (Homo sapiens, UniProt Q99685)
- Construct: purchased Cayman Chemical
- Sequence (Q99685 whole entry): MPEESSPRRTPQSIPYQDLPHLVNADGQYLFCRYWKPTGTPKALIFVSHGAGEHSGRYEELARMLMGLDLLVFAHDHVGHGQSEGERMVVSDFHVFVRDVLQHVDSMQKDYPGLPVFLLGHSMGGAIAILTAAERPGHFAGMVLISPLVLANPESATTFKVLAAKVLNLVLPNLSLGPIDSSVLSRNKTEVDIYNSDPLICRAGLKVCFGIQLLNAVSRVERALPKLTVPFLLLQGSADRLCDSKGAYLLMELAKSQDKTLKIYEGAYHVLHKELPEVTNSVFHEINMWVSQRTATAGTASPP
- assayDetails: MAGL-inhibition assay (4-NPA substrate, absorbance 405 nm)
- Assay type: biochemical
- testSettings: approximate values

compound: CC1=N/C(=C\c2cc(-c3ccc(OC(F)(F)F)cc3)ccc2-c2ccc(OC(F)(F)F)cc2)C(=O)O1 [Compound 20c]
IC50: 4 to 6 µM
--
compound: CC1=N/C(=C\c2cc(-c3ccc(C(F)(F)F)cc3)ccc2-c2ccc(C(F)(F)F)cc2)C(=O)O1 [Compound 20d]
IC50: 4 to 6 µM

###

- targetDesc: MAGL (Homo sapiens, UniProt Q99685)
- Construct: purchased Cayman Chemical
- assayDetails: MAGL-inhibition assay (4-NPA substrate, absorbance 405 nm)
- Type: biochemical
- testSettings: ratio of FAAH IC50 to MAGL IC50 (fold)

compound: CC1=N/C(=C\c2cc(-c3ccc(Cl)cc3)ccc2-c2ccc(Cl)cc2)C(=O)O1 [Compound 20h]
MAGL/FAAH selectivity: 24
//
compound: CC1=N/C(=C\c2cc(-c3ccc4c(c3)OCO4)ccc2-c2ccc3c(c2)OCO3)C(=O)O1 [Compound 20f]
MAGL/FAAH selectivity: 35
//
compound: CC1=N/C(=C\c2ccc(-c3ccccc3)c(-c3ccccc3)c2)C(=O)O1
MAGL/FAAH selectivity: 3
//
compound: CC1=N/C(=C\c2ccc(-c3ccccc3)cc2-c2ccccc2)C(=O)O1
MAGL/FAAH selectivity: 33
//
compound: CC1=N/C(=C\c2cc(-c3ccccc3)cc(-c3ccccc3)c2)C(=O)O1
MAGL/FAAH selectivity: 32
//
compound: CC1=N/C(=C\c2cc(-c3ccc(F)cc3)ccc2-c2ccc(F)cc2)C(=O)O1 [Compound 20a]
MAGL/FAAH selectivity: 41
//
compound: CC1=N/C(=C\c2cc(-c3ccccc3)ccc2-c2ccccc2)C(=O)O1
MAGL/FAAH selectivity: 34
//
compound: CC1=N/C(=C\c2cc(-c3ccc(C(F)(F)F)cc3)ccc2-c2ccc(C(F)(F)F)cc2)C(=O)O1 [Compound 20d]
MAGL/FAAH selectivity: 4
//
compound: CC1=N/C(=C\c2cc(-c3ccc(OC(F)(F)F)cc3)ccc2-c2ccc(OC(F)(F)F)cc2)C(=O)O1 [Compound 20c]
MAGL/FAAH selectivity: 4
//
compound: COc1ccc(-c2ccc(-c3ccc(OC)c(F)c3)c(/C=C3\N=C(C)OC3=O)c2)cc1F [Compound 20g]
MAGL/FAAH selectivity: 67

###

- targetDesc: MAGL (Homo sapiens)
- Construct: purchased Cayman Chemical
- assayDetails: MAGL-inhibition assay (4-NPA substrate, absorbance 405 nm)
- Format: biochemical
- testSettings: human recombinant MAGL, 4-NPA 100 µM, 30 min, RT
pIC50: −log10 of the molar value.
Examples of molecules with documented pIC50 follow.
endpointName: pIC50

molecule: CC1=N/C(=C\c2cc(-c3ccc(OC(F)(F)F)cc3)ccc2-c2ccc(OC(F)(F)F)cc2)C(=O)O1 [Compound 20c]
readoutNumber: 5.38

molecule: CC1=N/C(=C\c2ccc(-c3ccccc3)c(-c3ccccc3)c2)C(=O)O1 [Compound 5]
readoutNumber: 6.08

molecule: CC1=N/C(=C\c2cc(-c3ccc(F)cc3)ccc2-c2ccc(F)cc2)C(=O)O1 [Compound 20a]
readoutNumber: 6.17

molecule: CC1=N/C(=C\c2cc(-c3ccccc3)cc(-c3ccccc3)c2)C(=O)O1 [Compound 13]
readoutNumber: 6.34

molecule: CC1=N/C(=C\c2cc(-c3ccc4c(c3)OCO4)ccc2-c2ccc3c(c2)OCO3)C(=O)O1 [Compound 20f]
readoutNumber: 6.17

molecule: CC1=N/C(=C\c2ccc(-c3ccccc3)cc2-c2ccccc2)C(=O)O1 [Compound 7]
readoutNumber: 6.26

###

- targetDesc: MAGL (Homo sapiens)
- Construct: purchased Cayman Chemical
- assayDetails: MAGL-inhibition assay (4-NPA substrate, absorbance 405 nm)
- Format: biochemical
- testSettings: human recombinant MAGL, 4-NPA 100 µM, 30 min, RT
pIC50: −log10 of the molar value.
pIC50 vs 6: at or above is rule met, below is rule not met.

compound: COc1ccc(-c2ccc(-c3ccc(OC)cc3)c(/C=C3\N=C(C)OC3=O)c2)cc1 [Compound 20b]
assignedCategory: rule met

compound: CC1=N/C(=C\c2cc(-c3cccc(F)c3)ccc2-c2cccc(F)c2)C(=O)O1 [Compound 20e]
assignedCategory: rule met

compound: CC1=N/C(=C\c2cc(-c3ccccc3)ccc2-c2ccccc2)C(=O)O1 [Compound 15]
assignedCategory: rule met

compound: COc1ccc(-c2ccc(-c3ccc(OC)c(F)c3)c(/C=C3\N=C(C)OC3=O)c2)cc1F [Compound 20g]
assignedCategory: rule met

compound: COc1nn(-c2ccc(NC(=O)OCc3ccccc3)c(C)c2)c(=O)o1 [CAY10499, reference compound]
assignedCategory: rule met

compound: CC1=N/C(=C\c2cc(-c3ccc(C(F)(F)F)cc3)ccc2-c2ccc(C(F)(F)F)cc2)C(=O)O1 [Compound 20d]
assignedCategory: rule not met

compound: CC1=N/C(=C\c2cc(-c3ccc(Cl)cc3)ccc2-c2ccc(Cl)cc2)C(=O)O1 [Compound 20h]
assignedCategory: rule met

compound: CC1=N/C(=C\c2cccc(-c3ccccc3)c2-c2ccccc2)C(=O)O1 [Compound 9]
assignedCategory: rule not met

###

Catalogue of compounds with associated IC50
- targetDesc: human FAAH (Homo sapiens, UniProt O00519)
- Sequence (O00519 whole entry): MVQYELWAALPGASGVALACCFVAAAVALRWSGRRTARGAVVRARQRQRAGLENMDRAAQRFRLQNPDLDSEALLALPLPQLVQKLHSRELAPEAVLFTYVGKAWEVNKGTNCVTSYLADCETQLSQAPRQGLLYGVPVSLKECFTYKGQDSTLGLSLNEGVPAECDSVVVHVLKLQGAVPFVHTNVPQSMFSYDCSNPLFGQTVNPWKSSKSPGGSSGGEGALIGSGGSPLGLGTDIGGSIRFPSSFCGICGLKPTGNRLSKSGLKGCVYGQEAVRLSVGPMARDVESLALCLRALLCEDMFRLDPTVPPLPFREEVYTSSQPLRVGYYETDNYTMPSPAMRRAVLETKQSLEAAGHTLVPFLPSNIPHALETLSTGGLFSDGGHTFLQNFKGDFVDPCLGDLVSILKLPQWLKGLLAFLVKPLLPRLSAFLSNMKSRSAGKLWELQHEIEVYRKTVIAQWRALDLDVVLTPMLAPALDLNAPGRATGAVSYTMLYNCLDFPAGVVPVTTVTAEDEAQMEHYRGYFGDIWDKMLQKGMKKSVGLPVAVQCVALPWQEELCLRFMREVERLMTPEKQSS
endpointName: IC50 (µM)

compound: CC1=N/C(=C\c2cc(-c3ccc4c(c3)OCO4)ccc2-c2ccc3c(c2)OCO3)C(=O)O1 [Compound 20f]
readoutNumber: 23.7
--
compound: CC1=N/C(=C\c2cc(-c3ccc(C(F)(F)F)cc3)ccc2-c2ccc(C(F)(F)F)cc2)C(=O)O1 [Compound 20d]
readoutNumber: 29
--
compound: O=C(Oc1ccc([N+](=O)[O-])cc1)N1CCC(C(O)(c2ccc3c(c2)OCO3)c2ccc3c(c2)OCO3)CC1 [JZL-184, reference compound]
readoutNumber: 3.3
--
compound: CC1=N/C(=C\c2cc(-c3ccc(OC(F)(F)F)cc3)ccc2-c2ccc(OC(F)(F)F)cc2)C(=O)O1 [Compound 20c]
readoutNumber: 17.7
